This collection of values is drawn from patent US9637483B2.

Target: TYK2 (Homo sapiens, UniProt P29597)
Construct: purchased Invitrogen
Sequence (P29597 whole entry): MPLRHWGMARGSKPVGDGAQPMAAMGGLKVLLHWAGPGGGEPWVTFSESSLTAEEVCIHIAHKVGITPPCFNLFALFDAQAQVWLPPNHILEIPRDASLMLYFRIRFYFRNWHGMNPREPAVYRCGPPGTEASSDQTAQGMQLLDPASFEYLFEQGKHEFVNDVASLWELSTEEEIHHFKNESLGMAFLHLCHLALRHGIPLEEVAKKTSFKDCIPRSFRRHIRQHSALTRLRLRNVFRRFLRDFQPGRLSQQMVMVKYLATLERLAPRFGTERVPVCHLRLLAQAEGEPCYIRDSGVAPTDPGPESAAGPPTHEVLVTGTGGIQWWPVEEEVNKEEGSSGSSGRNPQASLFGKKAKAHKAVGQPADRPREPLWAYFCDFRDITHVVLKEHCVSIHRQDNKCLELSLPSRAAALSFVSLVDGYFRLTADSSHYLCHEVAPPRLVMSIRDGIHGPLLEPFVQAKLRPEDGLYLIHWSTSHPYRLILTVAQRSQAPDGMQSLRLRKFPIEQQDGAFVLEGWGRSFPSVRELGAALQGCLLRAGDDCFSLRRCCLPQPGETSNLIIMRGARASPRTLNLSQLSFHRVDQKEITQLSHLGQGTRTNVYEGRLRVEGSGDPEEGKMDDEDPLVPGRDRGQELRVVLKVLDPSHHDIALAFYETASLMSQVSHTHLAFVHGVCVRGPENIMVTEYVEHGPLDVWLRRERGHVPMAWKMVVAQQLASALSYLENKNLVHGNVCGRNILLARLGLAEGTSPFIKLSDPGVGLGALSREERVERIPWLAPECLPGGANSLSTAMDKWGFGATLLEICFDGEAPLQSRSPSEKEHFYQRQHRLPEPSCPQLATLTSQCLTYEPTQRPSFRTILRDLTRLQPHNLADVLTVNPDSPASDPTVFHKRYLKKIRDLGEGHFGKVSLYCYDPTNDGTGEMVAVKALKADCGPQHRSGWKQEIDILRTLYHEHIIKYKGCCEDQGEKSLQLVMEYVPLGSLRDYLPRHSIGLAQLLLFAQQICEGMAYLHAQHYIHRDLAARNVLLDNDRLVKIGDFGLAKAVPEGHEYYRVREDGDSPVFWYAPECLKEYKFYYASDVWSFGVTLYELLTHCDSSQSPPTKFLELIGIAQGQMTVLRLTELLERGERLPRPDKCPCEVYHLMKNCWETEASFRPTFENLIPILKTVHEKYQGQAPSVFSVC
Experiment: TYK2 enzyme inhibition test (LANCE method)
Type: biochemical
Settings: 1 μM test compound; read-out: TYK2 enzyme inhibitory activity (%, 1 μM)
For each entry below, report its inhibition at 1 µM value.
API: value field is a number in %; no unit string.

// inhibition at 1 µM lookup, key: CN1CCN(c2cc(-c3cn(C(C4CC4)C4CC4)c(=O)c4c(N)n[nH]c34)nn2C)CC1
106

// inhibition at 1 µM lookup, key: CC1CCCCC1n1cc(-c2cc(C(C)(C)O)n(C)n2)c2[nH]nc(N)c2c1=O (stereo not drawn) [Example 117]
99

// inhibition at 1 µM lookup, key: CN(C)[C@H]1CCN(c2cc(-c3cn(-c4c(F)cccc4F)c(=O)c4c(N)n[nH]c34)nn2C)C1
99

// inhibition at 1 µM lookup, key: CC(C)[C@H](C)n1cc(-c2cc(N3CCC[C@H]3CO)n(C)n2)c2[nH]nc(N)c2c1=O
99

// inhibition at 1 µM lookup, key: CC(C)[C@H](C)n1cc(-c2cc(N3CC[C@H](O)C3)n(C)n2)c2[nH]nc(N)c2c1=O
99

// inhibition at 1 µM lookup, key: CC(C1CC1)n1cc(-c2cc(N3CCOCC3)n(C)n2)c2[nH]nc(N)c2c1=O (racemic)
99

// inhibition at 1 µM lookup, key: CN(c1cc(-c2cn(-c3c(F)cccc3C#N)c(=O)c3c(N)n[nH]c23)nn1C)C1CCCC1
100

// inhibition at 1 µM lookup, key: CC(C)C(C#N)n1cc(-c2cc(N3CCOCC3)n(C)n2)c2[nH]nc(N)c2c1=O (racemic) [Example 112]
100

// inhibition at 1 µM lookup, key: CN(C[C@H]1CCCN1c1cc(-c2cn(C(C3CC3)C3CC3)c(=O)c3c(N)n[nH]c23)nn1C)S(C)(=O)=O
98

// inhibition at 1 µM lookup, key: CO[C@H]1CCN(c2cc(-c3cn([C@@H](C)C(C)C)c(=O)c4c(N)n[nH]c34)nn2C)C1
100

// inhibition at 1 µM lookup, key: C[C@@H](C1CC1)n1cc(-c2cc(N3CCC(O)(C(F)(F)F)CC3)n(C)n2)c2[nH]nc(N)c2c1=O
99

// inhibition at 1 µM lookup, key: Cn1nc(-c2cn(C(C3CC3)C3CC3)c(=O)c3c(N)n[nH]c23)cc1N1CCC[C@@H]1CO
101

// inhibition at 1 µM lookup, key: CC(C)[C@H](C)n1cc(-c2cc(N3CCCC3)n(C)n2)c2[nH]nc(N)c2c1=O
100

// inhibition at 1 µM lookup, key: CNC(=O)c1ccc(-c2cc(-c3cn([C@@H](C)C(C)C)c(=O)c4c(N)n[nH]c34)nn2C)cc1
100

// inhibition at 1 µM lookup, key: Cn1nc(-c2cn(C(C3CC3)C3CC3)c(=O)c3c(N)n[nH]c23)cc1N1CCC[C@@H]1CN1CCCC1
101

// inhibition at 1 µM lookup, key: COC1(c2cc(-c3cn(C(C4CC4)C4CC4)c(=O)c4c(N)n[nH]c34)nn2C)CN(C(=O)C(C)C)C1
100

// inhibition at 1 µM lookup, key: C[C@@H](C1CC1)n1cc(-c2cc(C(C)(C)O)n(C)n2)c2[nH]nc(N)c2c1=O
99

// inhibition at 1 µM lookup, key: CC(C)[C@H](C)n1cc(-c2cc(CN3CCCC3)n(C)n2)c2[nH]nc(N)c2c1=O
101

// inhibition at 1 µM lookup, key: CCOC(=O)C(C(C)C)n1cc(-c2cc(N3CCOCC3)n(C)n2)c2[nH]nc(N)c2c1=O (stereo not drawn)
83

// inhibition at 1 µM lookup, key: COC1(c2cc(-c3cn([C@@H](C)C4CC4)c(=O)c4c(N)n[nH]c34)nn2C)CN(S(=O)(=O)C(C)C)C1
100

// inhibition at 1 µM lookup, key: CC(C)[C@H](C)n1cc(-c2cc(C3(O)CCC3)n(C)n2)c2[nH]nc(N)c2c1=O
100

// inhibition at 1 µM lookup, key: CO[C@]1(c2cc(-c3cn(-c4c(F)cccc4F)c(=O)c4c(N)n[nH]c34)nn2C)C[C@H](C(=O)N(C)C)C1
101

// inhibition at 1 µM lookup, key: CC(C)[C@H](C)n1cc(-c2cc(N3CCOCC3)n(C)n2)c2[nH]nc(N)c2c1=O
101

// inhibition at 1 µM lookup, key: CC(C)[C@H](C)n1cc(-c2cc(C3(O)CCOCC3)n(C)n2)c2[nH]nc(N)c2c1=O
99

// inhibition at 1 µM lookup, key: CO[C@@H]1CCN(c2cc(-c3cn(C(C4CC4)C4CC4)c(=O)c4c(N)n[nH]c34)nn2C)C1
101

// inhibition at 1 µM lookup, key: CC(C)[C@H](C)n1cc(-c2cc(N3CCOC(C)(C)C3)n(C)n2)c2[nH]nc(N)c2c1=O
99

// inhibition at 1 µM lookup, key: CC(C)[C@H](C)n1cc(-c2cc(C3CC3)n(C)n2)c2[nH]nc(N)c2c1=O
100

// inhibition at 1 µM lookup, key: Cn1nc(-c2cn(C(C3CC3)C3CC3)c(=O)c3c(N)n[nH]c23)cc1N1CC[C@H](O)C1
101

// inhibition at 1 µM lookup, key: C[C@H](C1CC1)n1cc(-c2cc(N3CCOCC3)n(C)n2)c2[nH]nc(N)c2c1=O
100

// inhibition at 1 µM lookup, key: COC[C@H]1CCCN1c1cc(-c2cn(-c3c(F)cccc3F)c(=O)c3c(N)n[nH]c23)nn1C
100
